Origin of measurements: ChEMBL document CHEMBL1136310

- SYSTEM UNDER TEST: Geranylgeranyl transferase type I (Homo sapiens, UniProt P49354+P53609)
- EXPERIMENTAL PROTOCOL: Inhibition of [3H]-GGPP incorporation into recombinant human Ha-Ras-CVLL by Geranylgeranyl transferase type I
OUTCOME MEASURE: IC50

compound="CN1C(=O)c2cc3ccccc3n2C(=O)C1SSCc1ccccc1 (stereo not drawn)" observed_measurement="> 100 µM"

QUERY: What does the data say about its IC50? Entry: COc1cccc2c1cc1n2C(=O)CN(C)C1=O
RESULT: > 100 µM

QUERY: Fill blank: measured IC50 of the compound CN1CC(=O)n2c(cc3ccccc32)C1=O is ____.
RESULT: > 100 µM

QUERY: What measured IC50 goes with COc1cccc2c1CC1C(=O)N(C)CC(=O)N21 (stereo not drawn) ?
RESULT: > 100 µM

QUERY: Which IC50 value belongs to COc1cccc2c1cc1n2C(=O)C(SSCc2ccccc2)N(C)C1=O (stereo not drawn) ?
RESULT: > 100 µM

QUERY: Look up IC50: CN1C(=O)[C@]23CC4=CC=C[C@H](O)[C@H]4N2C(=O)[C@@]1(CO)SS3
RESULT: 17 µM

QUERY: State the recorded IC50 for this entry: COc1cccc2c1cc1n2C(=O)C(SC(C)=O)N(C)C1=O (stereo not drawn)
RESULT: 90.3 µM

QUERY: So what does the record say about IC50 for CN1CC(=O)N2c3ccccc3CC2C1=O (stereo not drawn) ?
RESULT: > 100 µM

###

- SYSTEM UNDER TEST: Protein farnesyltransferase (Homo sapiens, UniProt P49354+P49356)
- EXPERIMENTAL PROTOCOL: Inhibition of [3H]FPP incorporation into recombinant human Ha-Ras-CVLS by farnesyl transferase
OUTCOME MEASURE: IC50

molecule=COc1cccc2c1cc1n2C(=O)CN(C)C1=O outcome_measure=IC50 observed_measurement="> 100 µM"
molecule="CN1C(=O)[C@]23CC4=CC=C[C@H](O)[C@H]4N2C(=O)[C@@]1(CO)SS3 [GLIOTOXIN]" outcome_measure=IC50 observed_measurement="80 µM"
molecule="COc1cccc2c1cc1n2C(=O)C(SSCc2ccccc2)N(C)C1=O (stereo not drawn)" outcome_measure=IC50 observed_measurement="> 100 µM"
molecule="CN1CC(=O)N2c3ccccc3CC2C1=O (stereo not drawn)" outcome_measure=IC50 observed_measurement="> 100 µM"
molecule="COc1cccc2c1CC1C(=O)N(C)CC(=O)N21 (stereo not drawn)" outcome_measure=IC50 observed_measurement="> 100 µM"
molecule="CN1C(=O)c2cc3ccccc3n2C(=O)C1SSCc1ccccc1 (stereo not drawn)" outcome_measure=IC50 observed_measurement="> 100 µM"

QUERY: Given COc1cccc2c1cc1n2C(=O)C(SC(C)=O)N(C)C1=O (stereo not drawn) , state its recorded IC50.
RESULT: 748 µM

QUERY: Entry under review: CN1CC(=O)n2c(cc3ccccc32)C1=O . Reported IC50?
RESULT: > 100 µM
